assay: Permeability across basolateral to apical side in human Caco2 cells; format: ADME, cell-based; conditions: Caco-2, read-out: permeability
Reported Endpoint: Papp B→A
Remember to follow the number with its unit.

>  <Compound>
N#CC(C(=O)NCC(=O)NC1COC1)c1nc2ccc(-c3ccc(F)nc3)cc2s1 (racemic)

>  <Reported Endpoint>
Papp B→A

>  <Meas Value>
34.9 ×10⁻⁶ cm/s

$$$$

// query Papp B→A value for entry CN1CCN(C(=O)c2ccc(-c3ccc4nc(C(C#N)C(=O)NCC(=O)NC5CC5)sc4c3)cc2)CC1 (racemic)
3 ×10⁻⁶ cm/s

Can you share its Papp B→A? I mean this compound: N#CC(C(=O)NCC(=O)NC1CC1)c1nc2ccc(-c3ccc(C(=O)N4CCOCC4)cc3)cc2s1 (racemic)
18.4 ×10⁻⁶ cm/s

Fill blank: measured Papp B→A of the compound CN(C)C(=O)c1cccc(-c2ccc3nc(C(C#N)C(=O)NCC(=O)NC4CC4)sc3c2)c1 (racemic) is ____.
7.5 ×10⁻⁶ cm/s

Would you mind telling me what Papp B→A value was observed for N#CC(C(=O)NCC(=O)NC1CC1)c1nc2ccc(-c3ccccc3)cc2s1 (racemic) ?
24.6 ×10⁻⁶ cm/s
